I'd appreciate it if you could supply LD50 at 24 h values for the items below.
# experiment: Acute toxicity in mice (mortality after 24 h intravenous, 48 h per os)
# conditions_used: mouse, in vivo, intravenous, mortality after 24 hours
Field format: number, assumed mg/kg, no unit text.

QUERY: Sample O=C(O)COc1ccc(C(=O)c2ccco2)c(Cl)c1Cl [CE 3598] — what was its LD50 at 24 h?
RESULT: 450

QUERY: Fill in the blank: the reported LD50 at 24 h of Cc1ccc(C(=O)c2ccc(OCC(=O)O)c(Cl)c2Cl)s1 [CE 3649] is ____.
RESULT: 580

QUERY: Give its LD50 at 24 h value. Item: O=C(O)COc1ccc(C(=O)c2cccs2)c(Cl)c1Cl [CE 3624]
RESULT: 225
